The origin of these recorded values is the supplement of paper PMC10126150.

- Test system: ATP;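 also: ATP exposure 15 min at 22 °C before imaging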
- Assay Explanation: switch fluorescence ratio, 500 uM ATP over buffer (Cy3 cluster intensity, sum of 5 cycles each) (fold (ratio)); higher = stronger signal-on switching upon ATP binding; sequences stand for … in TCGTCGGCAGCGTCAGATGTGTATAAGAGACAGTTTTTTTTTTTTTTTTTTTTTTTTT…TC
- Experimental Setup: aptamer strand: ATP DNA aptamer (quencher-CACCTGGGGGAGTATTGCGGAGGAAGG + anchor), 100 nM annealed; ATP concentration: 500 uM
Here the recorded switch fluorescence ratio is given for each entry.
Quantity Kind: switch fluorescence ratio

Residues: GCGGTACTGC
Target: ATP;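 also: ATP exposure 15 min at 22 °C before imaging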
Test Result: 0.999
--
Residues: TAAAGCAGGC
Target: ATP;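 also: ATP exposure 15 min at 22 °C before imaging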
Test Result: 1.11
--
Residues: AAAAGTGGGT
Target: ATP;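 also: ATP exposure 15 min at 22 °C before imaging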
Test Result: 0.994
--
Residues: TTTCACAAAG
Target: ATP;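 also: ATP exposure 15 min at 22 °C before imaging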
Test Result: 1
--
Residues: TGTTCAGGTG
Target: ATP;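 also: ATP exposure 15 min at 22 °C before imaging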
Test Result: 3.38
--
Residues: CGGCCTGCG
Target: ATP;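 also: ATP exposure 15 min at 22 °C before imaging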
Test Result: 1.02
--
Residues: GTTGTGTCGG
Target: ATP;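 also: ATP exposure 15 min at 22 °C before imaging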
Test Result: 1.01
--
Residues: CGTTTTCCAG
Target: ATP;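 also: ATP exposure 15 min at 22 °C before imaging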
Test Result: 0.985
--
Residues: CATATTTAGG
Target: ATP;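 also: ATP exposure 15 min at 22 °C before imaging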
Test Result: 0.949
